Assay: Pharmacokinetics (PK) test in rats
Assay type: in vivo
Conditions: rat, plasma, intravenous, read-out: Vdss
Below is a list of entries, each paired with its recorded Vd value.
Note: a bare number is incomplete; add the unit.

Examples from the recorded data:
CN(c1ncnc2[nH]ccc12)N1CCC[C@@H](C(=O)NCC(F)(F)F)C1 (single isomer, unassigned) ... 1.49 L/kg
CN(c1ncnc2[nH]ccc12)N1CCCC(C(=O)NCC#N)C1 (stereo not drawn) ... 1.76 L/kg

Fill in the blank: the reported Vd of CN(c1ncnc2[nH]ccc12)N1CCC[C@@H](C(=O)NCC#N)C1 (single isomer, unassigned) is ____.
1.51 L/kg
